Test: Gelling of water-immiscible cosmetic liquids in 96 well glass micro-titre plate
Format: physicochemical
Parameters: key: gel; g4: gel after overnight (18 hrs) storage at 4° C.; g22: gel after overnight (18 hrs) storage at 22° C.; sg: soft gel; sg22: soft gel after overnight (18 hrs) storage at 22° C.; solution; *: the test at 4° C. was not carried out
Details: 5% cellobiose ester in Polydecene
reportedEndpoint: gelling of Polydecene

* CCCCCCCCCC(=O)OCC1OC(OC2C(COC(=O)CCCCCCCCC)OC(OC(C)=O)C(OC(=O)CCCCCCCCC)C2OC(=O)CCCCCCCCC)C(OC(=O)CCCCCCCCC)C(OC(=O)CCCCCCCCC)C1OC(=O)CCCCCCCCC (mixture of isomers) [Ex 2.4] | gel
* CCCCCCCCCC(=O)OCC1OC(OC2C(COC(=O)CCCCCCCCC)OC(OC(=O)c3ccccc3)C(OC(=O)CCCCCCCCC)C2OC(=O)CCCCCCCCC)C(OC(=O)CCCCCCCCC)C(OC(=O)CCCCCCCCC)C1OC(=O)CCCCCCCCC (mixture of isomers) [Ex 2.1] | gel

###

Test: Gelling of water-immiscible cosmetic liquids in 96 well glass micro-titre plate
Assay type: physicochemical
Parameters: key: gel; g4: gel after overnight (18 hrs) storage at 4° C.; g22: gel after overnight (18 hrs) storage at 22° C.; sg: soft gel; sg22: soft gel after overnight (18 hrs) storage at 22° C.; solution; *: the test at 4° C. was not carried out
Conditions: 10% cellobiose ester in IPM
reportedEndpoint: gelling of IPM

Examples with their reported gelling of IPM follow.
* CCCCCCCCC(=O)OCC1OC(OC2C(COC(=O)CCCCCCCC)OC(OC(=O)c3ccc4ccccc4c3)C(OC(=O)CCCCCCCC)C2OC(=O)CCCCCCCC)C(OC(=O)CCCCCCCC)C(OC(=O)CCCCCCCC)C1OC(=O)CCCCCCCC (mixture of isomers) [Ex 1.4] | sol
* CCCCCCCCC(=O)OCC1OC(OC2C(COC(=O)CCCCCCCC)OC(OC(=O)c3ccccc3)C(OC(=O)CCCCCCCC)C2OC(=O)CCCCCCCC)C(OC(=O)CCCCCCCC)C(OC(=O)CCCCCCCC)C1OC(=O)CCCCCCCC (mixture of isomers) [Ex 1.2] | sol
* CCCCCCCCC(=O)OCC1OC(OC2C(COC(=O)CCCCCCCC)OC(OC(=O)C3CCCCC3)C(OC(=O)CCCCCCCC)C2OC(=O)CCCCCCCC)C(OC(=O)CCCCCCCC)C(OC(=O)CCCCCCCC)C1OC(=O)CCCCCCCC (mixture of isomers) [Ex 1.11] | sol
* CCCCCCCCC(=O)OCC1OC(OC2C(COC(=O)CCCCCCCC)OC(OC(=O)c3ccc4ccccc4c3)C(OC(=O)CCCCCCCC)C2OC(=O)CCCCCCCC)C(OC(=O)CCCCCCCC)C(OC(=O)CCCCCCCC)C1OC(=O)CCCCCCCC (mixture of isomers) [Ex 1.3] | g22
* CCCCCCCCCCCCCCCC(=O)OC1OC(COC(=O)CCCCCCCC)C(OC2OC(COC(=O)CCCCCCCC)C(OC(=O)CCCCCCCC)C(OC(=O)CCCCCCCC)C2OC(=O)CCCCCCCC)C(OC(=O)CCCCCCCC)C1OC(=O)CCCCCCCC (mixture of isomers) [Ex 1.9] | g4

Would you mind telling me what gelling of IPM value was observed for CCCCCCCCC(=O)OCC1OC(OC2C(COC(=O)CCCCCCCC)OC(OC(=O)c3ccccc3)C(OC(=O)CCCCCCCC)C2OC(=O)CCCCCCCC)C(OC(=O)CCCCCCCC)C(OC(=O)CCCCCCCC)C1OC(=O)CCCCCCCC (mixture of isomers) [Ex 1.1] ?
gel

###

Assay: Gelling of water-immiscible cosmetic liquids in 96 well glass micro-titre plate
Format: physicochemical
Design: key: gel; g4: gel after overnight (18 hrs) storage at 4° C.; g22: gel after overnight (18 hrs) storage at 22° C.; sg: soft gel; sg22: soft gel after overnight (18 hrs) storage at 22° C.; solution; *: the test at 4° C. was not carried out
Conditions: 5% cellobiose ester in ISA; 150° C. 2.5 hours, cooled to ambient
reportedEndpoint: gelling of ISA

* CCCCCCCCCCCCCC(=O)OC1OC(COC(=O)CCCCCCCC)C(OC2OC(COC(=O)CCCCCCCC)C(OC(=O)CCCCCCCC)C(OC(=O)CCCCCCCC)C2OC(=O)CCCCCCCC)C(OC(=O)CCCCCCCC)C1OC(=O)CCCCCCCC (mixture of isomers) [Ex 1.24] | g22
* CCCCCCCCC(=O)OCC1OC(OC2C(COC(=O)CCCCCCCC)OC(OC(=O)c3ccc4ccccc4c3)C(OC(=O)CCCCCCCC)C2OC(=O)CCCCCCCC)C(OC(=O)CCCCCCCC)C(OC(=O)CCCCCCCC)C1OC(=O)CCCCCCCC (mixture of isomers) [Ex 1.3] | gel

###

Assay: Gelling of water-immiscible cosmetic liquids in 96 well glass micro-titre plate
Format: physicochemical
Set-up: key: gel; g4: gel after overnight (18 hrs) storage at 4° C.; g22: gel after overnight (18 hrs) storage at 22° C.; sg: soft gel; sg22: soft gel after overnight (18 hrs) storage at 22° C.; solution; *: the test at 4° C. was not carried out
Conditions: 10% cellobiose ester in ISA; 150° C. 2.5 hours, cooled to ambient
reportedEndpoint: gelling of ISA

Record excerpt, results attached:
* CCCCCCCCC(=O)OCC1OC(OC2C(COC(=O)CCCCCCCC)OC(OC(C)=O)C(OC(=O)CCCCCCCC)C2OC(=O)CCCCCCCC)C(OC(=O)CCCCCCCC)C(OC(=O)CCCCCCCC)C1OC(=O)CCCCCCCC (mixture of isomers) [Ex 1.7] | gel
* CCCCCCCCCC(=O)OCC1OC(OC2C(COC(=O)CCCCCCCCC)OC(OC(=O)c3ccccc3)C(OC(=O)CCCCCCCCC)C2OC(=O)CCCCCCCCC)C(OC(=O)CCCCCCCCC)C(OC(=O)CCCCCCCCC)C1OC(=O)CCCCCCCCC (mixture of isomers) [Ex 2.2] | gel
* CCCCCCCCCCCCCCCC(=O)OC1OC(COC(=O)CCCCCCCC)C(OC2OC(COC(=O)CCCCCCCC)C(OC(=O)CCCCCCCC)C(OC(=O)CCCCCCCC)C2OC(=O)CCCCCCCC)C(OC(=O)CCCCCCCC)C1OC(=O)CCCCCCCC (mixture of isomers) [Ex 1.8] | g22
* CCCCCCCCC(=O)OCC1OC(OC2C(COC(=O)CCCCCCCC)OC(OC(=O)CCCC)C(OC(=O)CCCCCCCC)C2OC(=O)CCCCCCCC)C(OC(=O)CCCCCCCC)C(OC(=O)CCCCCCCC)C1OC(=O)CCCCCCCC (mixture of isomers) [Ex 1.20] | g22
* CCCCCCCCC(=O)OCC1OC(OC2C(COC(=O)CCCCCCCC)OC(OC(=O)c3ccc4ccccc4c3)C(OC(=O)CCCCCCCC)C2OC(=O)CCCCCCCC)C(OC(=O)CCCCCCCC)C(OC(=O)CCCCCCCC)C1OC(=O)CCCCCCCC (mixture of isomers) [Ex 1.4] | g22

Fill blank: measured gelling of ISA of the molecule CCCCCCCCCC(=O)OCC1OC(OC2C(COC(=O)CCCCCCCCC)OC(OC(=O)c3ccc(-c4ccccc4)cc3)C(OC(=O)CCCCCCCCC)C2OC(=O)CCCCCCCCC)C(OC(=O)CCCCCCCCC)C(OC(=O)CCCCCCCCC)C1OC(=O)CCCCCCCCC (mixture of isomers) [Ex 2.9] is ____.
gel

Would you kindly repeat that for CCCCCCCCCC(=O)OCC1OC(OC2C(COC(=O)CCCCCCCCC)OC(OC(C)=O)C(OC(=O)CCCCCCCCC)C2OC(=O)CCCCCCCCC)C(OC(=O)CCCCCCCCC)C(OC(=O)CCCCCCCCC)C1OC(=O)CCCCCCCCC (mixture of isomers) [Ex 2.3] ?
gel

What about CCCCCCCCC(=O)OCC1OC(OC2C(COC(=O)CCCCCCCC)OC(OC(=O)C3CCCCC3)C(OC(=O)CCCCCCCC)C2OC(=O)CCCCCCCC)C(OC(=O)CCCCCCCC)C(OC(=O)CCCCCCCC)C1OC(=O)CCCCCCCC (mixture of isomers) [Ex 1.11] ?
g22

###

Assay: Gelling of water-immiscible cosmetic liquids in 96 well glass micro-titre plate
Assay type: physicochemical
Parameters: key: gel; g4: gel after overnight (18 hrs) storage at 4° C.; g22: gel after overnight (18 hrs) storage at 22° C.; sg: soft gel; sg22: soft gel after overnight (18 hrs) storage at 22° C.; solution; *: the test at 4° C. was not carried out
Settings: 5% cellobiose ester in ISA; 150° C. 2.5 hours, cooled to ambient
reportedEndpoint: gelling of ISA

• CCCCCCCCC(=O)OCC1OC(OC2C(COC(=O)CCCCCCCC)OC(OC(C)=O)C(OC(=O)CCCCCCCC)C2OC(=O)CCCCCCCC)C(OC(=O)CCCCCCCC)C(OC(=O)CCCCCCCC)C1OC(=O)CCCCCCCC (mixture of isomers) [Ex 1.5] = g22
• CCCCCCCCCC(=O)OCC1OC(OC2C(COC(=O)CCCCCCCCC)OC(OC(C)=O)C(OC(=O)CCCCCCCCC)C2OC(=O)CCCCCCCCC)C(OC(=O)CCCCCCCCC)C(OC(=O)CCCCCCCCC)C1OC(=O)CCCCCCCCC (mixture of isomers) [Ex 2.3] = gel
• CCCCCCCCCC(=O)OCC1OC(OC2C(COC(=O)CCCCCCCCC)OC(OC(=O)CCCCC)C(OC(=O)CCCCCCCCC)C2OC(=O)CCCCCCCCC)C(OC(=O)CCCCCCCCC)C(OC(=O)CCCCCCCCC)C1OC(=O)CCCCCCCCC (mixture of isomers) [Ex 2.11] = gel
• CCCCCCCCC(=O)OCC1OC(OC2C(COC(=O)CCCCCCCC)OC(OC(=O)c3ccc(-c4ccccc4)cc3)C(OC(=O)CCCCCCCC)C2OC(=O)CCCCCCCC)C(OC(=O)CCCCCCCC)C(OC(=O)CCCCCCCC)C1OC(=O)CCCCCCCC (mixture of isomers) [Ex 1.15] = gel
